Tested on: 695427-040-R-J1-PDC complex spheroid viability
procedure-summary: Anticancer human tumor 695427-040-R-J1-PDC patient-derived colon adenocarcinoma cell line growth inhibition [POLQ]
measurement-parameters: second compound 0.1 µM; first compound 1 µM; stronger effect = lower value
Procedure: Multicellular complex tumor spheroid response to Polymerase (POL) inhibitors (novobiocin, ART-558, RP6685) in combination with a variety of drugs and investigational agents in selected tumor cell lines The POL inhibitors (novobiocin, ART-558, and RP6685) were evaluated both individually and in combination with standard of care and investigational anticancer small molecules within a complex spheroid model of solid tumors. . […]
Mark true for viability, T/C under 90%, false if at or over.

Answered cases to consult:
INSERT INTO measurements (compound, discrete_label) VALUES
  ('COc1cc(C2c3cc4c(cc3C(OC3OC5COC(C)OC5C(O)C3O)C3COC(=O)C23)OCO4)cc(OC)c1O (stereo not given) + Cc1cccc(N(C)C(=O)C2C(O)CCN2c2nc(C)cc(C(F)(F)F)c2C#N)c1', 'false'),
  ('CNCc1ccc(-c2[nH]c3cc(F)cc4c3c2CCNC4=O)cc1 + Nc1ccc(C#CCN(C(=O)Cc2ncc(C(F)(F)F)cc2C(F)(F)F)c2ccc(F)cc2)nn1', 'false'),
  ('Nc1ccn(C2OC(CO)C(O)C2(F)F)c(=O)n1 (stereo not given) + Nc1ccc(C#CCN(C(=O)Cc2ncc(C(F)(F)F)cc2C(F)(F)F)c2ccc(F)cc2)nn1', 'true');

A record lists COc1cccc(OCCCN)c1-c1cc(Nc2cnc(C#N)cn2)n[nH]1 + Nc1ccc(C#CCN(C(=O)Cc2ncc(C(F)(F)F)cc2C(F)(F)F)c2ccc(F)cc2)nn1 . Is its viability, T/C below 90%?
true

---

System: 695427-040-R-J1-PDC complex spheroid viability
procedure-summary: Anticancer human tumor 695427-040-R-J1-PDC cell line growth inhibition [POLQ];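 note: spheroids exposed to compounds for seven days; 100% = DMSO vehicle control viability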
measurement-parameters: second compound 1 µM; first compound 10 µM; stronger effect = lower value
Protocol: Multicellular complex tumor spheroid response to Polymerase (POL) inhibitors (novobiocin, ART-558, RP6685) in combination with a variety of drugs and investigational agents in selected tumor cell lines The POL inhibitors (novobiocin, ART-558, and RP6685) were evaluated both individually and in combination with standard of care and investigational anticancer small molecules within a complex spheroid model of solid tumors. . […]
The label fulfilled is reserved for viability, T/C strictly under 80%; not fulfilled covers values equal to or above it.

Before answering, review these 3 worked examples.
INSERT INTO results (molecule, assay_target, discrete_label) VALUES
  ('C#Cc1c(F)ccc2cc(O)cc(-c3ncc4c(N5CC6CCC(C5)N6)nc(OCC56CCCN5CC(F)C6)nc4c3F)c12 (stereo not given) + Cc1cccc(N(C)C(=O)C2C(O)CCN2c2nc(C)cc(C(F)(F)F)c2C#N)c1', '695427-040-R-J1-PDC complex spheroid viability', 'not fulfilled'),
  ('COc1cccc2c1C(=O)c1c(O)c3c(c(O)c1C2=O)CC(O)(C(=O)CO)CC3OC1CC(N)C(O)C(C)O1 (stereo not given) + Nc1ccc(C#CCN(C(=O)Cc2ncc(C(F)(F)F)cc2C(F)(F)F)c2ccc(F)cc2)nn1', '695427-040-R-J1-PDC complex spheroid viability', 'fulfilled'),
  ('CC1COCCN1c1cc(C2(S(C)(=N)=O)CC2)nc(-c2ccnc3[nH]ccc23)n1 (stereo not given) + Nc1ccc(C#CCN(C(=O)Cc2ncc(C(F)(F)F)cc2C(F)(F)F)c2ccc(F)cc2)nn1', '695427-040-R-J1-PDC complex spheroid viability', 'not fulfilled');

With those in mind, consider the next molecule.
viability, T/C strictly < 80% for this molecule? Nc1ccn(C2OC(CO)C(O)C2(F)F)c(=O)n1 (stereo not given) + Cc1cccc(N(C)C(=O)C2C(O)CCN2c2nc(C)cc(C(F)(F)F)c2C#N)c1
fulfilled

---

System: 695427-040-R-J1-PDC complex spheroid viability
procedure-summary: Anticancer human tumor 695427-040-R-J1-PDC cell line growth inhibition [POLQ];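 note: spheroids exposed to compounds for seven days; 100% = DMSO vehicle control viability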
measurement-parameters: second compound 1 µM; first compound 10 µM; stronger effect = lower value
viability, T/C: recorded values
State just the number; it will be interpreted in %.

Look up viability, T/C for this molecule: CC1COCCN1c1cc(C2(O)CC3CCC(C2)O3)c2cnn(-c3ccn[nH]3)c2n1 (stereo not drawn) + COC1C(OC(N)=O)C(O)C(Oc2ccc3c(O)c(NC(=O)c4ccc(O)c(CC=C(C)C)c4)c(=O)oc3c2C)OC1(C)C
45

Given the molecule CNCc1ccc(-c2[nH]c3cc(F)cc4c3c2CCNC4=O)cc1 + Cc1cccc(N(C)C(=O)C2C(O)CCN2c2nc(C)cc(C(F)(F)F)c2C#N)c1 , what is its reported viability, T/C?
102

What value of measured viability, T/C is listed for C=CC(=O)N1CCN(c2nc(=O)n(-c3c(C)ccnc3C(C)C)c3nc(-c4c(O)cccc4F)c(F)cc23)C(C)C1 (stereo not drawn) + Nc1ccc(C#CCN(C(=O)Cc2ncc(C(F)(F)F)cc2C(F)(F)F)c2ccc(F)cc2)nn1 ?
96.9

---

Tested on: 695427-040-R-J1-PDC complex spheroid viability
procedure-summary: Anticancer human tumor 695427-040-R-J1-PDC cell line growth inhibition [POLQ];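 note: spheroids exposed to compounds for seven days; 100% = DMSO vehicle control viability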
measurement-parameters: second compound 3.16 µM; first compound 0.0316 µM; stronger effect = lower value
Procedure: Multicellular complex tumor spheroid response to Polymerase (POL) inhibitors (novobiocin, ART-558, RP6685) in combination with a variety of drugs and investigational agents in selected tumor cell lines The POL inhibitors (novobiocin, ART-558, and RP6685) were evaluated both individually and in combination with standard of care and investigational anticancer small molecules within a complex spheroid model of solid tumors. . […]
Listing of entries alongside the reported viability, T/C.
Respond numerically; units are % and should not be typed.

Consider the reported viability, T/C for these compounds:
INSERT INTO assay_data (compound, meas_value) VALUES
  ('COc1cccc(OCCCN)c1-c1cc(Nc2cnc(C#N)cn2)n[nH]1 + Nc1ccc(C#CCN(C(=O)Cc2ncc(C(F)(F)F)cc2C(F)(F)F)c2ccc(F)cc2)nn1', 80),
  ('COc1cc(C2c3cc4c(cc3C(OC3OC5COC(C)OC5C(O)C3O)C3COC(=O)C23)OCO4)cc(OC)c1O (stereo unspecified) + Cc1cccc(N(C)C(=O)C2C(O)CCN2c2nc(C)cc(C(F)(F)F)c2C#N)c1', 92.8),
  ('CCCS(=O)(=O)Nc1ccc(F)c(C(=O)c2c[nH]c3ncc(-c4ccc(Cl)cc4)cc23)c1F + COC1C(OC(N)=O)C(O)C(Oc2ccc3c(O)c(NC(=O)c4ccc(O)c(CC=C(C)C)c4)c(=O)oc3c2C)OC1(C)C', 110),
  ('CCc1cc2c(N3CCc4c(cc(Cn5ccnc5)cc4-c4cn(C)nc4C(F)(F)F)C3=O)ccnc2c(OC)n1 + Nc1ccc(C#CCN(C(=O)Cc2ncc(C(F)(F)F)cc2C(F)(F)F)c2ccc(F)cc2)nn1', 116),
  ('CC[C@@]1(O)C(=O)OCc2c1cc1n(c2=O)Cc2cc3c(CN(C)C)c(O)ccc3nc2-1 + Cc1cccc(N(C)C(=O)C2C(O)CCN2c2nc(C)cc(C(F)(F)F)c2C#N)c1', 101);

Entry CCc1cc2c(N3CCc4c(cc(Cn5ccnc5)cc4-c4cn(C)nc4C(F)(F)F)C3=O)ccnc2c(OC)n1 + Cc1cccc(N(C)C(=O)C2C(O)CCN2c2nc(C)cc(C(F)(F)F)c2C#N)c1 : reported viability, T/C = ?
101

Could you share which viability, T/C value was measured for CC1COCCN1c1cc(C2(S(C)(=N)=O)CC2)nc(-c2ccnc3[nH]ccc23)n1 (stereo unspecified) + Nc1ccc(C#CCN(C(=O)Cc2ncc(C(F)(F)F)cc2C(F)(F)F)c2ccc(F)cc2)nn1 ?
100

Recorded viability, T/C for O=c1[nH]cc(F)c(=O)[nH]1 + Nc1ccc(C#CCN(C(=O)Cc2ncc(C(F)(F)F)cc2C(F)(F)F)c2ccc(F)cc2)nn1 , please?
98.7

Which measured viability, T/C value corresponds to COc1ccc([C@@H](O)c2cc(-c3ncnc4cc(N5CCOCC5)ccc34)c(F)cc2Cl)nn1 + COC1C(OC(N)=O)C(O)C(Oc2ccc3c(O)c(NC(=O)c4ccc(O)c(CC=C(C)C)c4)c(=O)oc3c2C)OC1(C)C ?
105

If you can, please state the reported viability, T/C value of Nc1ccn(C2OC(CO)C(O)C2(F)F)c(=O)n1 (stereo unspecified) + Cc1cccc(N(C)C(=O)C2C(O)CCN2c2nc(C)cc(C(F)(F)F)c2C#N)c1 .
91.8

---

System: 695427-040-R-J1-PDC complex spheroid viability
procedure-summary: Anticancer human tumor 695427-040-R-J1-PDC cell line growth inhibition [POLQ];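 note: spheroids exposed to compounds for seven days; 100% = DMSO vehicle control viability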
measurement-parameters: second compound 10 µM; first compound 1 µM; stronger effect = lower value
Overview of reported viability, T/C across a group of compounds:
A number alone suffices; assume %.

INSERT INTO measurements (compound, test_readout, meas_value) VALUES
  ('O=C(c1cc(Cc2n[nH]c(=O)c3ccccc23)ccc1F)N1CCN(C(=O)C2CC2)CC1 + Cc1cccc(N(C)C(=O)C2C(O)CCN2c2nc(C)cc(C(F)(F)F)c2C#N)c1', 'viability, T/C', 90.4),
  ('COc1cc2cc(C(=O)CCC(=O)O)sc2cc1OC + COC1C(OC(N)=O)C(O)C(Oc2ccc3c(O)c(NC(=O)c4ccc(O)c(CC=C(C)C)c4)c(=O)oc3c2C)OC1(C)C', 'viability, T/C', 120);

# evaluate next
Return reported viability, T/C; argument: C=CCn1c(=O)c2cnc(Nc3ccc(N4CCN(C)CC4)cc3)nc2n1-c1cccc(C(C)(C)O)n1 + COC1C(OC(N)=O)C(O)C(Oc2ccc3c(O)c(NC(=O)c4ccc(O)c(CC=C(C)C)c4)c(=O)oc3c2C)OC1(C)C
71.7

Where do these numbers come from? They come from PubChem BioAssay AID1963840.
